assay: alpha-synuclein stem-loop luciferase translation blockers – H4 neuroglioma cells, luminescence, confirmation (AID 1988); assay type: functional, cell-based
Activity calls are given as the source filed them.
ASSAY METRIC: EC50

[[record]]
structure_smiles_string = "COc1ccc(C)cc1N(C(=O)c1ccccc1F)c1nc2ccccc2s1"
readout_value = "> 120 µM (not active)"

[[record]]
structure_smiles_string = "COc1ccc(CCN2CCC(Nc3nc4ccccc4n3Cc3ccc(F)cc3)CC2)cc1"
readout_value = "7.94 µM (active)"

[[record]]
structure_smiles_string = "CCc1ccc(Oc2coc3cc(OCC(=O)Nc4cc(C)ccc4C)ccc3c2=O)cc1"
readout_value = "9.97 µM (active)"

[[record]]
structure_smiles_string = "Oc1ccccc1N=Nc1ccccc1O"
readout_value = "0.13 µM (active)"

[[record]]
structure_smiles_string = "C=CCn1c(C)cc(C(=O)CN2C(=O)c3ccccc3C2=O)c1C"
readout_value = "8.53 µM (active)"

[[record]]
structure_smiles_string = "CC[C@@H](C)[C@H](CNC)NC[C@@H](Cc1cccc2ccccc12)NCCc1cccc(C(F)(F)F)c1"
readout_value = "7.84 µM (active)"

[[record]]
structure_smiles_string = "C=CCNc1nc(N)c([N+](=O)[O-])c(N2CCCCCC2)n1"
readout_value = "26.7 µM (active)"


====

biological target: Cytochrome P450 3A4 (Homo sapiens);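 further: CYP3A4 tested as one member of a cytochrome P450 panel screen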
Sequence (P08684 whole entry): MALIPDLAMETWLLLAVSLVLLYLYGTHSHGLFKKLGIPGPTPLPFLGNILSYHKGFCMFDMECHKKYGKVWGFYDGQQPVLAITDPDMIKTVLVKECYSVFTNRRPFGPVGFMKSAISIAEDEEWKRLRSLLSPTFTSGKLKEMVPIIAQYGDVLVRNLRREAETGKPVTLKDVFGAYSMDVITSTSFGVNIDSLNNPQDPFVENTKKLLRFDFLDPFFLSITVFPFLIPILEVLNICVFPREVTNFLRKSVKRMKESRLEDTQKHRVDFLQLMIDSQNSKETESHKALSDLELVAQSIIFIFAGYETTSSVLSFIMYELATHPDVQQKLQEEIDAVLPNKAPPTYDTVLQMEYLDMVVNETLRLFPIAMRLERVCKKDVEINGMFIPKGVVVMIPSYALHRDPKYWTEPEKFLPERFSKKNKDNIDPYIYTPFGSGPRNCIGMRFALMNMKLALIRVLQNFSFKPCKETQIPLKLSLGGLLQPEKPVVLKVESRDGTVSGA
ASSAY METRIC: AC50

[[record]]
molecule = "COc1ccc(-c2nc3cnc(OCc4ccccc4)nc3n(CCC#N)c2=O)cc1"
assay_metric = "AC50"
readout_value = "10 µM (inconclusive)"

[[record]]
molecule = "Cc1ccc(C(=O)Nc2nc3ccccc3n3nnnc23)cc1"
assay_metric = "AC50"
readout_value = "10 µM (inconclusive)"

[[record]]
molecule = "CC12CS(=O)(=O)CC1SC(=S)N2c1ccccn1 (stereo unspecified)"
assay_metric = "AC50"
readout_value = "17.8 µM (inconclusive)"

[[record]]
molecule = "Cc1cccc(N(CC(=O)NCCSCc2ccco2)S(=O)(=O)c2ccccc2)c1"
assay_metric = "AC50"
readout_value = "3.55 µM (inconclusive)"

[[record]]
molecule = "Cc1nn(C(=O)c2cccnc2)c(C)c1Sc1ccc(Br)cc1"
assay_metric = "AC50"
readout_value = "15.8 µM (inconclusive)"

[[record]]
molecule = "C=C1C(O)(c2ccccc2)C2CC[N+]1(C)CC2.[Cl-] (stereo unspecified)"
assay_metric = "AC50"
readout_value = "3.16 µM (inconclusive)"


====

experiment: NIH3T3 cell viability loss – ATP luminescence, mouse fibroblasts, counter-screen, dose response (AID 2010); assay type: functional, cell-based;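 further: cells exposed to compound for about 90 hours before reading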
Active and inactive are the calls of the source.
ASSAY METRIC: EC50

[[record]]
compound = "Oc1ccccc1N=Nc1ccccc1O"
readout_value = "12.1 µM (active)"

[[record]]
compound = "c1ccc(CCn2nnnc2C(c2cccnc2)N2CCN(c3nc4ccccc4s3)CC2)cc1 (centres undefined)"
readout_value = "31.2 µM (active)"

[[record]]
compound = "COc1cc(-c2cc(-c3ccccc3)nc(SCC(=O)Nc3nccs3)c2C#N)cc(OC)c1OC"
readout_value = "> 30 µM (not active)"

[[record]]
compound = "COc1ccccc1N(CC(O)Cn1c2ccccc2c2ccccc21)S(=O)(=O)c1ccccc1 (centres undefined)"
readout_value = "> 60 µM (not active)"


====

assay: viability of uninfected HEp-2 cells – cell-based, HTS, cytotoxicity control for RSV inhibitor project, dose response (AID 2410); type: functional; details: human respiratory syncytial virus
Activity calls are given as the source filed them.
ASSAY METRIC: CC50

[[record]]
molecule = "Cc1c(-c2nc[nH]n2)sc(C#N)c1-c1ccccc1"
readout_value = "24.4 µM (active)"

[[record]]
molecule = "CC(Oc1ccc(Cl)cc1Cl)C(=O)Nc1cccc(O)c1 (stereo not given)"
readout_value = "27.2 µM (active)"

[[record]]
molecule = "Cc1n[nH]c(-c2ccc(OCc3cnn(-c4ccccc4)c3)c(C)c2O)c1Oc1ccccc1"
readout_value = "14.6 µM (active)"

[[record]]
molecule = "CC1(C)C(=O)NCCN1C(=O)CSc1nccc(-c2ccc(Br)cc2)n1"
readout_value = "34.1 µM (active)"

[[record]]
molecule = "CSc1ccc(/C=N/n2nnnc2N)cc1"
readout_value = "48.5 µM (active)"

